Catalogue of sequences with associated phosphorylation enrichment
# STUDY TARGET: Hck (UniProt P08631)
# Sequence (P08631 whole entry, looked up): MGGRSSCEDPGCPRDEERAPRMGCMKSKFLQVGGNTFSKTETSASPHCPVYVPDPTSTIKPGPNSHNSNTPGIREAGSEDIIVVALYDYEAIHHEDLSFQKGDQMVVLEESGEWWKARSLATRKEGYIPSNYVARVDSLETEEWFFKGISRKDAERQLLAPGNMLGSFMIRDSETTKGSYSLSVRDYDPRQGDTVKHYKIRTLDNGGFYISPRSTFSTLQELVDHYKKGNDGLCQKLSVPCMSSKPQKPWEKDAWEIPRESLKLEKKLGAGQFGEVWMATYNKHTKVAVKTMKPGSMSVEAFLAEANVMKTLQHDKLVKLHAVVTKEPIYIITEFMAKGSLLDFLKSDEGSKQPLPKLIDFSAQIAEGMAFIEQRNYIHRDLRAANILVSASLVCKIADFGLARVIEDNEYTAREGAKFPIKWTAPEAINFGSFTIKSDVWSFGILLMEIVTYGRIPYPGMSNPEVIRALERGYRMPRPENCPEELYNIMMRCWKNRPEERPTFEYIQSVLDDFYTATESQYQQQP
# METHOD: phosphorylation enrichment, bacterial display (enrichment ratio); higher = better substrate or ligand; peptides without Tyr show the background;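 note: 11-residue human phosphosite peptides and single-mutation variants displayed on the E. coli surface, counted by deep sequencing, each peptide's frequency after selection divided by its frequency in the unselected input library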;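 note: frequency after pTyr selection over input frequency; kinase dosed for 20-30% of maximal phosphorylation in three min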

RESIDUE STRING: ARVDTYCRHNY [HLA-DRB1_Y107_A103R]
STUDY TARGET: Hck (UniProt P08631)
phosphorylation enrichment: 0.502

RESIDUE STRING: KMKGEYFRFLA [YWHAG_Y130_D129E_YF]
STUDY TARGET: Hck (UniProt P08631)
phosphorylation enrichment: 0.783

RESIDUE STRING: WRPFGYPHRRR [BCS1L_Y181_R183H]
STUDY TARGET: Hck (UniProt P08631)
phosphorylation enrichment: 0.509

RESIDUE STRING: CTTIHYNFMCF [TP53_Y234_N239Y_YF]
STUDY TARGET: Hck (UniProt P08631)
phosphorylation enrichment: 0.451

RESIDUE STRING: SGKSEYLLPVA [MYLK_Y611_R607G]
STUDY TARGET: Hck (UniProt P08631)
phosphorylation enrichment: 0.362

RESIDUE STRING: KILGTYYETGS [PAX2_Y72_R71T]
STUDY TARGET: Hck (UniProt P08631)
phosphorylation enrichment: 0.818

RESIDUE STRING: VKPENYRRLDI [VHL_Y175]
STUDY TARGET: Hck (UniProt P08631)
phosphorylation enrichment: 0.331

RESIDUE STRING: TLSGIYQFSIA [FOXL2_Y81_I84S_YF]
STUDY TARGET: Hck (UniProt P08631)
phosphorylation enrichment: 3.82

RESIDUE STRING: KCLAVYQAGAR [APOE_Y180_R176C]
STUDY TARGET: Hck (UniProt P08631)
phosphorylation enrichment: 0.812

RESIDUE STRING: ISDNACQYMLT [MYH7_Y162_Y162C]
STUDY TARGET: Hck (UniProt P08631)
phosphorylation enrichment: 0.518

RESIDUE STRING: VMAALYGRLYE [BTD_Y536_T532M]
STUDY TARGET: Hck (UniProt P08631)
phosphorylation enrichment: 5.58

RESIDUE STRING: YRIGPYQPSVP [MATR3_Y784_N787S]
STUDY TARGET: Hck (UniProt P08631)
phosphorylation enrichment: 0.481

RESIDUE STRING: GFIISYREEEQ
STUDY TARGET: Hck (UniProt P08631)
phosphorylation enrichment: 0.456

RESIDUE STRING: AVLQLYIFVAT [CFTR_Y1014_P1013L]
STUDY TARGET: Hck (UniProt P08631)
phosphorylation enrichment: 0.562

RESIDUE STRING: GFITSYREEEQ
STUDY TARGET: Hck (UniProt P08631)
phosphorylation enrichment: 0.517

RESIDUE STRING: DHLASYLDKVR [KRT10_Y160_R156H]
STUDY TARGET: Hck (UniProt P08631)
phosphorylation enrichment: 0.439

RESIDUE STRING: RKRQFYLFKGK [RSPO4_Y112_C107R_YF]
STUDY TARGET: Hck (UniProt P08631)
phosphorylation enrichment: 1.19

RESIDUE STRING: GEFHVYRHLRR [PRKRIP1_Y82]
STUDY TARGET: Hck (UniProt P08631)
phosphorylation enrichment: 0.57

RESIDUE STRING: RLLRGYDQLAY [HLA-C_Y137_S140L]
STUDY TARGET: Hck (UniProt P08631)
phosphorylation enrichment: 0.637

RESIDUE STRING: GLDGSYLLRFS [SH2D1A_Y29_D33Y_YF]
STUDY TARGET: Hck (UniProt P08631)
phosphorylation enrichment: 0.408

RESIDUE STRING: ERPGVHTNVVE [F11_Y608_Y608H]
STUDY TARGET: Hck (UniProt P08631)
phosphorylation enrichment: 0.394
